Target: HPK1 (Homo sapiens, UniProt Q92918)
Assay: HPK1 kinase activity assay (ADP-Glo)
Details: HPK1 Kinase activity IC50 (nM), 1 nM HPK1, 10 μM ATP, 0.1 μg/μL MBP
Sequence (Q92918 1-346 limits assumed): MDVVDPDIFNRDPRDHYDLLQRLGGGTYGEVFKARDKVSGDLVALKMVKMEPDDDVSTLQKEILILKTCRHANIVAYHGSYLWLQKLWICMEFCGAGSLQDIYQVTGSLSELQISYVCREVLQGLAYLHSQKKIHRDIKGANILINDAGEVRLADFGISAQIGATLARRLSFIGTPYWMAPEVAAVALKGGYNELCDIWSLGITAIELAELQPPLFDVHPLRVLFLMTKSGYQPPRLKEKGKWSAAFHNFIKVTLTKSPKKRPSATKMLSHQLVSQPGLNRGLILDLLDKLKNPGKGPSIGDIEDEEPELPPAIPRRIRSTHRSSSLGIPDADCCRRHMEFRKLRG
Quick list: IC50 per entry.
Please respond with the number in nM and leave the unit unwritten.

N#CCc1c[nH]c2ncc(-c3cc4c(c([C@@H]5CCCN5)c3)COCC4)cc12 (single isomer, unassigned)	0.99
FC(F)(F)c1c[nH]c2ncc(-c3cc(C4CCCN4)c4cnccc4c3)cc12 (stereo not shown)	4.13
Cc1c[nH]c2ncc(-c3cc4c(c([C@@H]5CCCN5)c3)CCN(C(=O)[C@H]3CCOC3)C4)cc12	0.52

As a next step, examine the compound that follows.
What the record says about `CN(C)Cc1cc(-c2cnc3[nH]cc(Cl)c3c2)cc2c1COCC2` : IC50 is 4.01

* * *

Quick list: log10 IC50 per entry.
Target: HPK1 (Homo sapiens, UniProt Q92918)
Assay: HPK1 kinase activity assay (ADP-Glo)
Conditions: HPK1 Kinase activity IC50 (nM), 1 nM HPK1, 10 μM ATP, 0.1 μg/μL MBP
Units before log transform: nM; reported quantity: IC50; transform: log10.

What the record says about `Cc1c[nH]c2ncc(-c3cc4c(c([C@@H]5CCCN5)c3)CN(C(=O)NC3CC3)CC4)cc12` : log10 IC50 is -0.38

What the record says about Cc1c[nH]c2ncc(-c3cc4c(c(C(C)N(C)C)c3)COCC4)cc12 (centres unmarked) : log10 IC50 is 0.61

What the record says about `Cc1c[nH]c2ncc(-c3cc4c(c([C@@H]5CCCN5)c3)CCN(C(=O)[C@@H]3CCOC3)C4)cc12` : log10 IC50 is -0.33

* * *

Biological target: HPK1 (Homo sapiens, UniProt Q92918)
Assay: HPK1 kinase activity assay (ADP-Glo)
Details: HPK1 Kinase activity IC50 (nM), 1 nM HPK1, 10 μM ATP, 0.1 μg/μL MBP
Counter-ions that a name gives are not always drawn.
ASSAY_ENDPOINT: IC50
Please provide the amount together with its unit, number first.

These solved cases illustrate the format of a correct answer.
CNC(c1ccccc1)c1cc(-c2cnc3[nH]cc(C)c3c2)cc2c1COCC2 (single isomer, unassigned) [Compound Z234-1]	154 nM
Cc1c[nH]c2ncc(-c3cc4c(c([C@@H]5CCCN5)c3)CCN(C(=O)C(C)(C)O)C4)cc12	0.61 nM
Cc1c[nH]c2ncc(-c3cc4c(c([C@@H]5CCCN5)c3)CN(C(=O)N3CCC(F)(F)CC3)CC4)cc12	0.37 nM
Cc1c[nH]c2ncc(-c3cc4c(c([C@@H]5CCCN5)c3)CN(C(=O)N3CCOCC3)CC4)cc12	0.28 nM
Cc1c[nH]c2ncc(-c3cc4c(c([C@@H]5CCCN5)c3)CN(c3ccccn3)CC4)cc12	168 nM

What the record says about `Cc1cc(C(=O)N2CCc3cc(-c4cnc5[nH]cc(C)c5c4)cc([C@@H]4CCCN4)c3C2)n(C)n1` : IC50 is 0.45 nM

What the record says about Cc1c[nH]c2ncc(-c3cc(C4CCCN4)c4cnccc4c3)cc12 (stereo not drawn) [Compound Z3, formate] : IC50 is 4.34 nM

What the record says about CC(=O)N1CCc2cc(-c3cnc4[nH]cc(C)c4c3)cc([C@H]3CCCN3)c2C1 (single isomer, unassigned) : IC50 is 49.4 nM

What the record says about `Cc1c[nH]c2ncc(-c3cc4c(c([C@@H]5CCCN5)c3)CN(C(=O)c3ccccc3)CC4)cc12` : IC50 is 1.35 nM

What the record says about `CCNC(=O)N1CCc2cc(-c3cnc4[nH]cc(C)c4c3)cc([C@@H]3CCCN3)c2C1` : IC50 is 0.44 nM

What the record says about `Cc1c[nH]c2ncc(-c3cc4c(c([C@@H]5CCCN5)c3)CN(C(=O)c3ccccn3)CC4)cc12` : IC50 is 1.7 nM

What the record says about `O=C1OCc2ccc(-c3c[nH]c4ncc(-c5cc6c(c([C@@H]7CCCN7)c5)COCC6)cc34)cc21` : IC50 is 0.97 nM

* * *

Quick list: IC50 per entry.
Molecular target: HPK1 (Homo sapiens)
Assay: HPK1 kinase activity assay (ADP-Glo)
Conditions: HPK1 Kinase activity IC50 (nM), 1 nM HPK1, 10 μM ATP, 0.1 μg/μL MBP
Please respond with the number in nM and leave the unit unwritten.

Cc1c[nH]c2ncc(-c3cc4c(c([C@@H]5CCCN5)c3)CN(C(=O)c3cn(C(C)C)nc3C(F)(F)F)CC4)cc12	0.75
Cc1c[nH]c2ncc(-c3cc4c(c(CN5CC6CCC(C5)N6C)c3)COCC4)cc12	62.2
Cc1[nH]c2ncc(-c3cc4c(c([C@@H]5CCCN5)c3)CN(C(=O)[C@](C)(O)C(F)(F)F)CC4)cc2c1C	20.6
Cc1c[nH]c2ncc(-c3cc4c(c([C@@H]5CCCN5)c3)CN(C(=O)c3cnn(C(F)F)c3)CC4)cc12	0.36
N#CCc1c[nH]c2ncc(-c3cc4c(c(C5CCCN5)c3)COCC4)cc12 (stereo not shown)	0.49
Cc1c[nH]c2ncc(-c3cc4c(c([C@@H]5CCCN5)c3)CN(CC3(O)CCOCC3)CC4)cc12	0.58

As a next step, examine the compound that follows.
What the record says about `Cc1c[nH]c2ncc(-c3cc4c(c([C@@H]5CCCN5)c3)CN(C(=O)C3CC3)CC4)cc12` : IC50 is 0.71

* * *

Biological target: HPK1 (Homo sapiens)
Experiment: SLP76 phosphorylation assay (intracellular HPK1 inhibitory activity, p-SLP76 Ser376 sandwich ELISA)
Settings: p-SLP76 IC50(nM), Jurkat, Clone E6-1 cells; 1 h compound pre-incubation, anti-CD3 beads stimulation 20 min; SLP76 phosphorylation at S376
Sequence (Q92918 whole entry): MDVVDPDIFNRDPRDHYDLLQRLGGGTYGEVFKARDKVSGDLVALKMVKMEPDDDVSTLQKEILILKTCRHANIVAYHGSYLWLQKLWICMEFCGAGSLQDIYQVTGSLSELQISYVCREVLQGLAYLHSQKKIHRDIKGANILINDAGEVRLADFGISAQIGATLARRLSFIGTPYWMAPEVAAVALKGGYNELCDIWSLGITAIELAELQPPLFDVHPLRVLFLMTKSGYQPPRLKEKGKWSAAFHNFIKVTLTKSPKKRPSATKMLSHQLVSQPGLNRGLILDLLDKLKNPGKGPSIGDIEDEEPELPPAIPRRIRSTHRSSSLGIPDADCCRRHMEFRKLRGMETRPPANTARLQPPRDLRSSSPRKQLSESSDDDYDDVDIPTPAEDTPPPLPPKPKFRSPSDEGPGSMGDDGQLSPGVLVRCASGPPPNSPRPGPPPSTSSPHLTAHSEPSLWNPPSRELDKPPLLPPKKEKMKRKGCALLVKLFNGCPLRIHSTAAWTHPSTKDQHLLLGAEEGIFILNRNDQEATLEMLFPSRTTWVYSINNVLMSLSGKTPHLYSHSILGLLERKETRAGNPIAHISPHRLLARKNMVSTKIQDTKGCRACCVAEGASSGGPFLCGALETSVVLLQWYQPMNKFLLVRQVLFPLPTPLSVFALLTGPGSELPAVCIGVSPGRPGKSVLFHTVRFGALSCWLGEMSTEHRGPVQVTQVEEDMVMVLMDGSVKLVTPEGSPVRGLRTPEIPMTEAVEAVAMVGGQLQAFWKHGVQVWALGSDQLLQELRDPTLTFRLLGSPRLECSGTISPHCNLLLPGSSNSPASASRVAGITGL
Threshold 200 nM. IC50 below it: Satisfied. IC50 at it or above: Not satisfied.

Enquiry: Lab log: compare recorded IC50 with 200 nM; is it strictly lower for `Cc1c[nH]c2ncc(-c3cc4c(c([C@@H]5CCCN5)c3)CCN(c3ccnn3C)C4)cc12` ?
Return: Not satisfied

* * *

Target: HPK1 (Homo sapiens, UniProt Q92918)
Assay: SLP76 phosphorylation assay (intracellular HPK1 inhibitory activity, p-SLP76 Ser376 sandwich ELISA)
Conditions: p-SLP76 IC50(nM), Jurkat, Clone E6-1 cells; 1 h compound pre-incubation, anti-CD3 beads stimulation 20 min; SLP76 phosphorylation at S376
Threshold 400 nM. IC50 below it: MET. IC50 at it or above: NOT MET.

Example results:
Cc1c[nH]c2ncc(-c3cc4c(c([C@@H]5CCCN5)c3)CN(C(=O)c3ccccc3)CC4)cc12	MET
Cc1c[nH]c2ncc(-c3cc4c(c([C@@H]5CCCN5)c3)CN(C(=O)Nc3nccs3)C4)cc12	NOT MET
COCC(=O)N1CCc2cc(-c3cnc4[nH]cc(C(C)C)c4c3)cc([C@@H]3COCCN3)c2C1	MET
Cc1c[nH]c2ncc(-c3cc4c(c([C@@H]5CCCN5)c3)CN(C(=O)c3cnn(CCO)c3)CC4)cc12	NOT MET
Cc1c[nH]c2ncc(-c3cc4c(c([C@@H]5CCCN5)c3)CN(C(=O)c3cnc(C5CC5)nc3)CC4)cc12	MET

Enquiry: Lab log: compare recorded IC50 with 400 nM; is it strictly lower for `Cc1c[nH]c2ncc(-c3cc4c(c([C@@H]5CCCN5)c3)CN(c3ccncc3)CC4)cc12` ?
Return: MET

Enquiry: Lab log: compare recorded IC50 with 400 nM; is it strictly lower for Cc1c[nH]c2ncc(-c3cc4c(c(C5CC6(CC6)CN5)c3)COCC4)cc12 (centres unmarked) ?
Return: NOT MET

Enquiry: Lab log: compare recorded IC50 with 400 nM; is it strictly lower for `Cc1c[nH]c2ncc(-c3cc4c(c([C@@H]5CCCN5)c3)CCN(C3CCOCC3)C4)cc12` ?
Return: NOT MET

Enquiry: Lab log: compare recorded IC50 with 400 nM; is it strictly lower for Cc1c[nH]c2ncc(-c3cc4c(c([C@@H]5CCCN5)c3)COCC4)cc12 (single isomer, unassigned) ?
Return: MET

Enquiry: Lab log: compare recorded IC50 with 400 nM; is it strictly lower for `CCNC(=O)N1CCc2c(cc(-c3cnc4[nH]cc(C)c4c3)cc2[C@@H]2CCCN2)C1` ?
Return: MET

Enquiry: Lab log: compare recorded IC50 with 400 nM; is it strictly lower for C[C@@H](C#N)c1c[nH]c2ncc(-c3cc4c(c([C@@H]5CCCN5)c3)COCC4)cc12 (single isomer, unassigned) ?
Return: MET

Enquiry: Lab log: compare recorded IC50 with 400 nM; is it strictly lower for `Cc1cc(C(=O)N2CCc3cc(-c4cnc5[nH]cc(C)c5c4)cc([C@@H]4CCCN4)c3C2)cc(C)n1` ?
Return: MET

Enquiry: Lab log: compare recorded IC50 with 400 nM; is it strictly lower for `Cc1ccncc1C#Cc1c[nH]c2ncc(-c3cc4c(c([C@@H]5CCCN5)c3)COCC4)cc12` ?
Return: MET

Enquiry: Lab log: compare recorded IC50 with 400 nM; is it strictly lower for `Cc1c[nH]c2ncc(-c3cc4c(c([C@@H]5CCCN5)c3)CCN(S(C)(=O)=O)C4)cc12` ?
Return: MET

Enquiry: Lab log: compare recorded IC50 with 400 nM; is it strictly lower for `Cc1ncc(N2CCc3c(cc(-c4cnc5[nH]cc(C)c5c4)cc3[C@@H]3CCCN3)C2)s1` ?
Return: NOT MET

Enquiry: Lab log: compare recorded IC50 with 400 nM; is it strictly lower for `CC(=O)N1Cc2cc(-c3cnc4[nH]cc(C)c4c3)cc([C@@H]3CCCN3)c2C1` ?
Return: NOT MET

Enquiry: Lab log: compare recorded IC50 with 400 nM; is it strictly lower for `CN(C)Cc1cc(-c2cnc3[nH]cc(C(=O)NCC4(CO)CCC4)c3c2)cc2c1COCC2` ?
Return: NOT MET

Enquiry: Lab log: compare recorded IC50 with 400 nM; is it strictly lower for `Cc1c[nH]c2ncc(-c3cc4c(c([C@@H]5COCCN5)c3)CN(S(C)(=O)=O)CC4)cc12` ?
Return: MET

Enquiry: Lab log: compare recorded IC50 with 400 nM; is it strictly lower for Cc1c[nH]c2ncc(-c3cc4c(c(C(C)N(C)C)c3)COCC4)cc12 (centres unmarked) ?
Return: NOT MET

Enquiry: Lab log: compare recorded IC50 with 400 nM; is it strictly lower for Cc1c[nH]c2ncc(-c3cc([C@@H]4CCCN4)c4cnccc4c3)cc12 (single isomer, unassigned) ?
Return: NOT MET

Enquiry: Lab log: compare recorded IC50 with 400 nM; is it strictly lower for `C=C1COCc2c(cc(-c3cnc4[nH]cc(C)c4c3)cc2[C@@H]2CCCN2)C1` ?
Return: NOT MET

Enquiry: Lab log: compare recorded IC50 with 400 nM; is it strictly lower for CC(C)c1c[nH]c2ncc(-c3cc(C4CCCN4)c4cnccc4c3)cc12 (centres unmarked) ?
Return: NOT MET

Enquiry: Lab log: compare recorded IC50 with 400 nM; is it strictly lower for `COCC(=O)N1CCc2cc(-c3cnc4[nH]cc(C(C)C)c4c3)cc([C@@H]3CCCN3)c2C1` ?
Return: MET

FYI, the data here is from patent US20240182465A1.
